Biological target: HDAC1 (Homo sapiens)
Construct: FLAG; His
Sequence (Q13547 whole entry): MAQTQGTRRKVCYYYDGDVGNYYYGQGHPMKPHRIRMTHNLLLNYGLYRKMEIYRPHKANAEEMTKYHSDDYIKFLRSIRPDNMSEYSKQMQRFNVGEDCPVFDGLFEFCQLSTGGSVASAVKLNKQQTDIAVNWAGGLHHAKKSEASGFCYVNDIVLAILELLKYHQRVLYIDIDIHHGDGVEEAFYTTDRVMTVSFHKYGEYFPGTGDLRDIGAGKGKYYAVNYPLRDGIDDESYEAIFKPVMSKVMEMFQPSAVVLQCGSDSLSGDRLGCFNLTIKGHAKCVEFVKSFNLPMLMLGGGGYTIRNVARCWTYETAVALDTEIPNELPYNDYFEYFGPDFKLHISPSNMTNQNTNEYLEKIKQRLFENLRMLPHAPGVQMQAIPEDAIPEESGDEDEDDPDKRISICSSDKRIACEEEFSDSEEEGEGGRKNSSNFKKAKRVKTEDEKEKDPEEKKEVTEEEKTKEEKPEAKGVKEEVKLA
Assay: HDAC1 fluorimetric enzyme inhibition assay (BPS Bioscience kit)
Settings: human recombinant HDAC1 FLAG-tag His-tag; triplicate
experimental_readout: IC50
Just so you know, I need the unit written after the number.

Consider O=C(CCCCCCC(=O)Nc1cc2cccnc2c2ncccc12)NO [L^1] . Its measured IC50 is 105 nM
